The molecules listed here are annotated with their T/C.
Tested on: CD2F1 mice, L1210 leukemia ip, survival T/C
Assay: NCI In Vivo Anticancer Drug Screen. Data for tumor model L1210 Leukemia (intraperitoneal) in CD2F1 (CDF1) mice
Details: endpoint: mean survival time; dose: 12.5 mg/kg/injection; schedule: Q01DX001 (ip); vehicle: saline with Tween-80; higher = longer survival
Toxic doses and inconclusive results are not listed.
measuredMetric: T/C

>  <molecule>
CN1CCC23CC=CCC2C1Cc1ccc([N+](=O)[O-])cc13 (centres undefined)

>  <experimentalValue>
105 % of control

$$$$
>  <molecule>
C(=C(/C=C/c1ccccc1)/C=C/c1ccccc1)C(=C/c1ccccc1)/c1ccccc1

>  <experimentalValue>
100 % of control

$$$$
>  <molecule>
FC(F)(F)c1cccc(NC2=NCCS2)c1

>  <experimentalValue>
106 % of control

$$$$
>  <molecule>
CC(C[P+](c1ccccc1)(c1ccccc1)c1ccccc1)C(O)(C(=O)c1ccccc1)c1ccccc1 (centres undefined)

>  <experimentalValue>
103 % of control

$$$$

* * *

System: CD2F1 mice, L1210 leukemia ip, survival T/C
Assay: NCI In Vivo Anticancer Drug Screen. Data for tumor model L1210 Leukemia (intraperitoneal) in CD2F1 (CDF1) mice
Details: endpoint: mean survival time; dose: 200.0 mg/kg/injection; schedule: Q01DX009 (ip); vehicle: saline; higher = longer survival
Inconclusive results and toxic doses are left out.
The compounds listed here are annotated with their T/C.
measuredMetric: T/C

>  <compound>
NC(CCC(=O)c1ccccn1)C(=O)O (stereo not given)

>  <targetUnderTest>
CD2F1 mice, L1210 leukemia ip, survival T/C

>  <measuredMetric>
T/C

>  <experimentalValue>
100 % of control

$$$$
>  <compound>
CCCOC(=O)C(SCCN(C)C)c1ccccc1 (stereo not given)

>  <targetUnderTest>
CD2F1 mice, L1210 leukemia ip, survival T/C

>  <measuredMetric>
T/C

>  <experimentalValue>
100 % of control

$$$$
>  <compound>
COc1ccc(CCN)cc1OC

>  <targetUnderTest>
CD2F1 mice, L1210 leukemia ip, survival T/C

>  <measuredMetric>
T/C

>  <experimentalValue>
97 % of control

$$$$
>  <compound>
CC(N)C(=O)NC(CO)C(=O)O (stereo not given)

>  <targetUnderTest>
CD2F1 mice, L1210 leukemia ip, survival T/C

>  <measuredMetric>
T/C

>  <experimentalValue>
95 % of control

$$$$
>  <compound>
NC(=O)C(c1ccccc1)N1CCOCC1 (stereo not given)

>  <targetUnderTest>
CD2F1 mice, L1210 leukemia ip, survival T/C

>  <measuredMetric>
T/C

>  <experimentalValue>
101 % of control

$$$$

* * *

The compounds listed here are annotated with their T/C.
Tested on: CD2F1 mice, L1210 leukemia ip, survival T/C
Experiment: NCI In Vivo Anticancer Drug Screen. Data for tumor model L1210 Leukemia (intraperitoneal) in CD2F1 (CDF1) mice
Settings: endpoint: median survival time; dose: 50.0 mg/kg/injection; schedule: Q01DX009 (ip); vehicle: saline with Tween-80; higher = longer survival
Inconclusive results and toxic doses are left out.
measuredMetric: T/C

>  <compound>
Cc1cc(Br)c2nsnc2c1[N+](=O)[O-]

>  <experimentalValue>
100 % of control

$$$$
>  <compound>
CC/C(=C(\c1ccccc1)c1ccc(OCCN(C)C)cc1)c1ccccc1

>  <experimentalValue>
107 % of control

$$$$
>  <compound>
c1cc[c]([Sn]([NH]c2ncnc3[nH]cnc23)([NH]c2ncnc3[nH]cnc23)[c]2ccccc2)cc1

>  <experimentalValue>
118 % of control

$$$$
>  <compound>
CN(C=O)C(C(=O)Nc1cccc2c(OC(=O)C(N(C)C=O)(N(C)C=O)N(C)C=O)c(N=Nc3ccc(S(=O)(=O)Nc4nccs4)cc3)cc(N=Nc3ccc(S(=O)(=O)Nc4nccs4)cc3)c12)(N(C)C=O)N(C)C=O (tested in a mixture with another compound)

>  <experimentalValue>
95 % of control

$$$$

* * *

System: CD2F1 mice, L1210 leukemia ip, survival T/C
Test: NCI In Vivo Anticancer Drug Screen. Data for tumor model L1210 Leukemia (intraperitoneal) in CD2F1 (CDF1) mice
Conditions: endpoint: median survival time; dose: 100.0 mg/kg/injection; schedule: Q01DX005 (ip); vehicle: saline with Tween-80; higher = longer survival
Toxic doses and inconclusive results are not listed.

>  <molecule>
CS(=O)(=O)OCC1OC(n2ccc(NC(=O)c3ccccc3)nc2=O)CC1OS(C)(=O)=O (centres undefined)

>  <T/C>
103 % of control

$$$$
>  <molecule>
Cc1ccc(/C=C/C(=O)/C=C/c2ccc(C)o2)o1

>  <T/C>
100 % of control

$$$$
>  <molecule>
OC1OCC(COc2ccc(Cl)cc2)OC1O (centres undefined)

>  <T/C>
115 % of control

$$$$
>  <molecule>
COc1nc(NC2OCC(O)C(O)C2O)c(I)c(=O)n1C (centres undefined)

>  <T/C>
101 % of control

$$$$

* * *

Test system: CD2F1 mice, L1210 leukemia ip, survival T/C
Assay: NCI In Vivo Anticancer Drug Screen. Data for tumor model L1210 Leukemia (intraperitoneal) in CD2F1 (CDF1) mice
Conditions: endpoint: mean survival time; dose: 25.0 mg/kg/injection; schedule: Q01DX005 (ip); vehicle: water; higher = longer survival
Toxic doses and inconclusive results are not listed.
measuredMetric: T/C

>  <molecule>
O=c1ccn(C2OC(CO)C(O)C2C[N+](=O)[O-])c(=O)[nH]1 (stereo not given)

>  <experimentalValue>
97 % of control

$$$$
>  <molecule>
OCC1OC(n2cnc3c2[nH]c(=S)n2ccnc32)C(O)C1O (stereo not given)

>  <experimentalValue>
101 % of control

$$$$
>  <molecule>
CC1(O)Nc2nc3nc[nH]c3c(=O)n2C1O (stereo not given)

>  <experimentalValue>
90 % of control

$$$$
>  <molecule>
OCC1OC(n2ncc3c(NO)ncnc32)C(O)C1O (stereo not given)

>  <experimentalValue>
88 % of control

$$$$
>  <molecule>
O=C(O)CCCSc1nn(C2OC(CO)C(O)C2O)c(=O)[nH]c1=O (stereo not given)

>  <experimentalValue>
104 % of control

$$$$

* * *

The compounds listed here are annotated with their T/C.
Test system: CD2F1 mice, L1210 leukemia ip, survival T/C
Test: NCI In Vivo Anticancer Drug Screen. Data for tumor model L1210 Leukemia (intraperitoneal) in CD2F1 (CDF1) mice
Settings: endpoint: mean survival time; dose: 100.0 mg/kg/injection; schedule: Q01DX001 (ip); vehicle: saline; higher = longer survival
Toxic doses and inconclusive results are not listed.
measuredMetric: T/C

>  <smilesNotation>
O=C(NNCN1C(=O)c2ccccc2C1=O)c1ccccc1

>  <measuredMetric>
T/C

>  <experimentalValue>
98 % of control

$$$$
>  <smilesNotation>
Cc1cc(C)c2nc(-c3ccc(Cl)cc3)cc(C(=O)O)c2c1

>  <measuredMetric>
T/C

>  <experimentalValue>
96 % of control

$$$$
>  <smilesNotation>
CC(=O)NCC(C)C

>  <measuredMetric>
T/C

>  <experimentalValue>
98 % of control

$$$$
>  <smilesNotation>
COC(=O)CNC(=O)C(F)(F)F

>  <measuredMetric>
T/C

>  <experimentalValue>
104 % of control

$$$$

* * *

The compounds listed here are annotated with their T/C.
System: CD2F1 mice, L1210 leukemia ip, survival T/C
Experiment: NCI In Vivo Anticancer Drug Screen. Data for tumor model L1210 Leukemia (intraperitoneal) in CD2F1 (CDF1) mice
Conditions: endpoint: mean survival time; dose: 25.0 mg/kg/injection; schedule: Q04DX002 (ip); vehicle: saline with Tween-80; higher = longer survival
Toxic doses and inconclusive results are not listed.

>  <compound>
Nc1[nH]c(=S)[nH]c(=O)c1N

>  <targetUnderTest>
CD2F1 mice, L1210 leukemia ip, survival T/C

>  <T/C>
102 % of control

$$$$
>  <compound>
O=C(O)COc1ccc(Cl)cc1Cl (tested in a mixture with another compound)

>  <targetUnderTest>
CD2F1 mice, L1210 leukemia ip, survival T/C

>  <T/C>
111 % of control

$$$$
>  <compound>
c1ccc(C[S][Sn]([c]2ccccc2)([c]2ccccc2)[c]2ccccc2)cc1

>  <targetUnderTest>
CD2F1 mice, L1210 leukemia ip, survival T/C

>  <T/C>
91 % of control

$$$$
>  <compound>
Cc1ccc(S(=O)(=O)NN2C(=O)c3ccccc3C2=O)cc1

>  <targetUnderTest>
CD2F1 mice, L1210 leukemia ip, survival T/C

>  <T/C>
96 % of control

$$$$

* * *

Tested on: CD2F1 mice, L1210 leukemia ip, survival T/C
Experiment: NCI In Vivo Anticancer Drug Screen. Data for tumor model L1210 Leukemia (intraperitoneal) in CD2F1 (CDF1) mice
Conditions: endpoint: mean survival time; dose: 50.0 mg/kg/injection; schedule: Q01DX009 (ip); vehicle: saline with Tween-80; higher = longer survival
Inconclusive results and toxic doses are left out.

>  <smilesNotation>
C/C(=N/NC(=O)CC#N)c1ccccc1

>  <T/C>
98 % of control

$$$$
>  <smilesNotation>
NC(N)=NC1CCCC1

>  <T/C>
100 % of control

$$$$
>  <smilesNotation>
C[N+](C)(C)Cc1ncccc1OC(=O)N(c1ccccc1)c1ccccc1

>  <T/C>
96 % of control

$$$$
>  <smilesNotation>
O=C(Nc1cc(Cl)c(Cl)cc1Cl)C1CC1

>  <T/C>
119 % of control

$$$$
>  <smilesNotation>
CSc1nc(C)cc(Cl)n1

>  <T/C>
94 % of control

$$$$
>  <smilesNotation>
CC(C)(CN(Cc1ccccc1)Cc1ccccc1)[N+](=O)[O-]

>  <T/C>
98 % of control

$$$$
>  <smilesNotation>
CCC1(CC)C=CCC/C1=N\NS(=O)(=O)c1ccc(C)cc1

>  <T/C>
95 % of control

$$$$
